target: LmPDE-B1 (Leishmania major, UniProt Q6S997); assay: PDE activity assay in yeast lysates, recombinant LmPDE-B1 (3H-cAMP hydrolysis); assay type: biochemical; settings: 1 μM cAMP, yeast lysate; read-out: IC50, inhibition of LmPDE-B1 activity
Sequence (Q6S997 entry or part of it): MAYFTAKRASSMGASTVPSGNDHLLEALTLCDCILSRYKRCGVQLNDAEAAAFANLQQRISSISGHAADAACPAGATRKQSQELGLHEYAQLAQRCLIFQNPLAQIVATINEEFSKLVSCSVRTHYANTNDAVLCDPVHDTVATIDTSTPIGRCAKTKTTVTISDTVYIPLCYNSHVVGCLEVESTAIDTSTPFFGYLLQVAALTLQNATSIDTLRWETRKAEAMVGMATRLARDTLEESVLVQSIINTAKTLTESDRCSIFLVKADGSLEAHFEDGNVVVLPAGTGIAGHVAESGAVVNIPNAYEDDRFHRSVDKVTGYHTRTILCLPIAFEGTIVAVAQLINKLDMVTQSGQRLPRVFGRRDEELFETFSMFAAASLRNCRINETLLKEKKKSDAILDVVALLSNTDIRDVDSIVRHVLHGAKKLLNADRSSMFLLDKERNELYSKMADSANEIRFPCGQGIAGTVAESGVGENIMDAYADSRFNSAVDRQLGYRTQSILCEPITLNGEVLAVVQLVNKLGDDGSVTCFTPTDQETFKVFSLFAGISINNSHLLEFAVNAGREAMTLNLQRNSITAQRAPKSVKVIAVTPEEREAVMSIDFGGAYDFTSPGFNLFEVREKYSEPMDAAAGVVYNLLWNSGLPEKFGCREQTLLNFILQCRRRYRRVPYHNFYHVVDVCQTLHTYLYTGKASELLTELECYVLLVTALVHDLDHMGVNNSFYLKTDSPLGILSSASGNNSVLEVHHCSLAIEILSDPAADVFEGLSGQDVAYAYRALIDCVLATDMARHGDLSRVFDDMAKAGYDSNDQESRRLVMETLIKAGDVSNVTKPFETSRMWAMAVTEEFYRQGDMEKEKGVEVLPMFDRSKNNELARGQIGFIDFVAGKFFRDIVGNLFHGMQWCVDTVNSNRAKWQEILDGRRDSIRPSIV
quantity_measured: pIC50
pIC50 is a log-scale quantity: -log10 of the concentration expressed in molar.

Lab note: measured pIC50 of COc1cc2c(cc1OC)-c1c/c(=N\c3c(C)cc(C)cc3C)n(C)c(=O)n1CC2 was 4.02
